Origin of the recorded values: ChEMBL document CHEMBL4699492

experiment: Antiproliferative activity against HPASMC assessed as reduction in TGFbeta-induced cell proliferation measured after 48 hrs by CCK8 assay; format: functional, tissue-based; details: Homo sapiens, Pulmonary Artery Smooth Muscle Cells
// IC50 lookup, one value per entry
Provide the reading as a plain figure in µM.

Worked cases, IC50 given:
- Structure as smiles: "Cc1nn(-c2ccccc2)c2nc(O)c(-c3nc(N)cc(N)n3)cc12"
  Assay value: 40.6
- Structure as smiles: "Cc1nn(-c2ccccc2)c2nc(OCc3ccccc3F)c(-c3nc(N)c(N(C)C)c(N)n3)cc12"
  Assay value: 56.5
- Structure as smiles: "Cc1nn(-c2ccccc2)c2nc(OCc3ccccc3F)c(-c3nc(N)c(N)c(N)n3)cc12"
  Assay value: 22.4
- Structure as smiles: "c1cc(-c2cnn3cc(-c4ccc(OCCN5CCCCC5)cc4)cnc23)ccn1"
  Assay value: 82.2

Input line: Which IC50 is listed for `COC(=O)Nc1c(N)nc(-c2cc3c(C)nn(-c4ccccc4)c3nc2OCc2ccccc2F)nc1N` ?
Output line: 25.5

Input line: Item `Cc1nn(-c2ccccc2)c2nc(OCc3ccccc3F)c(-c3nc(N)c(N4CCCC4)c(N)n3)cc12` has what recorded IC50?
Output line: 29.3

Input line: Name the recorded IC50 for `Cc1ccccc1COc1nc2c(cc1-c1nc(N)cc(N)n1)c(C)nn2-c1ccccc1` .
Output line: 17

Input line: Name the reported IC50 value associated with the molecule `Cc1nn(-c2ccccc2)c2nc(OCc3ccccc3F)c(-c3nc(N)c(N4CCOC4=O)c(N)n3)cc12`
Output line: 24.7

Input line: Reported IC50 for `Cc1nn(-c2ccccc2)c2nc(OCc3ccccc3F)c(-c3nc(N)c(N4CCOCC4)c(N)n3)cc12` : what is it?
Output line: 25.2

Input line: So what's the measured IC50 for this one? `Cc1nn(-c2ccccc2)c2nc(OCc3ccccc3F)c(-c3nc(N)c(NC(=O)OC4CCCC4)c(N)n3)cc12`
Output line: 24.8

Input line: Find the recorded IC50 belonging to `CC(=O)Nc1c(N)nc(-c2cc3c(C)nn(-c4ccccc4)c3nc2OCc2ccccc2F)nc1N` and report it.
Output line: 34.9

Input line: State the recorded IC50 for this entry: `Cc1nn(-c2ccccc2)c2nc(OCc3ccccc3)c(-c3nc(N)cc(N)n3)cc12`
Output line: 67.4
